# system.tested: T1, HCV Core1-169 (hepatitis C virus (HCV-1), UniProt P26664 1-169)
# T1 sequence: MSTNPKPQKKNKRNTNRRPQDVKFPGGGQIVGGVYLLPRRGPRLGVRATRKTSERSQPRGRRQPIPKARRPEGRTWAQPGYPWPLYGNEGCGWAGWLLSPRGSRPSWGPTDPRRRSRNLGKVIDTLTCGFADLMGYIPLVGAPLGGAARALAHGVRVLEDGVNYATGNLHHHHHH
# experiment: SPR sandwich, capture mAb C11-14
measurement.label: expected percent binding

HCV 208A-210 (antibody, V domains shown) VH: QVQLQQSGPELVKPGASMRISCKASGYTFTSYYVHWIKQRPGQGLEWIGCIYPGDVNTDYNEKFKGKATLTADKSSSTAYMQVSTLTSEDSAIYFCVLYYYGSFAYWGQGTLVTVSA VL: EIVLTQSPAITAASLGQNVTITCRASSSVSYMHWYRQKSGTSPQLWIYEISRRASGVPARFRASGSGTSYSLTISSMEAEDAAIYYCQQWNYPLTFGAGTKLEVKR; ≤ 1%

Note: attention shifts to another entry.
Reported expected percent binding, binder HCV 208B-408 (antibody, V domains shown) VH: EVKLVESGGGLVQPGGSLRLSCASSGFTFTDYYMSWVRQPPGKALEWLGFIRNKAYGYTTEFSASVNGRFTISRDDSQSVPYLQMNTLRAEDSATYYCARVLYYDYGGFAYWGQGTLVTVST VL: DIQMTQSPASLSASVGETVTITCRASGNIHTYLAWYQQKQGKSPQLLVYNANTLADGVPSRFSGSGSGTQFSLKINSLQPDDFGSYYCQHFWSAPWTFGGGTQLEIKR : ____
≤ 1%
